Consider the following binders; for each one, report its pIC50, S1P transport inhibition (LC-MS/MS of S1P).
# Measured Target: T1, mouse SPNS2 (mouse, UniProt Q91VM4 1-549)
# T1 sequence: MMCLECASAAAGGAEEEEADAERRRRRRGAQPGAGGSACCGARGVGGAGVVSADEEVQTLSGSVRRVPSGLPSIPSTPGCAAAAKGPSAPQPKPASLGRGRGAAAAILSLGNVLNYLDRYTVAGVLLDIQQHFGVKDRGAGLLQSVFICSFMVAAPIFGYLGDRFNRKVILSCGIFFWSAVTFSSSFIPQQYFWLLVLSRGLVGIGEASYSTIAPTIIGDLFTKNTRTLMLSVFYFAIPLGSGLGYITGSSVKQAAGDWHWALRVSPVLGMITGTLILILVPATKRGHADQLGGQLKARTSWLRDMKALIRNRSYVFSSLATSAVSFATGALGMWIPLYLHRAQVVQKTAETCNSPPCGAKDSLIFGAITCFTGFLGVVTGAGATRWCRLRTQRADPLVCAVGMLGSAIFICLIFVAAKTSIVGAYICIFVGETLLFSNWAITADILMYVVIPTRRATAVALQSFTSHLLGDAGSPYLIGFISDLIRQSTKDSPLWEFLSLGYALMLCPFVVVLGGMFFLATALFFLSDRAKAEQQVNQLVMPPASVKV
# Test Summary: cell-based or functional assay

INPUT: Any idea what its pIC50, S1P transport inhibition (LC-MS/MS of S1P) is? The binder is 49-0703G (antibody, IgG2b, V domains shown) VH: EVQLVESGGGLVQPGRSMKLSCAASGFTFSNHYMAWVRQAPTKGLEWVASISTGGGNTYYRDSVKGRFTISRDNAKSTLYLQMDSLRSEDTATYYCARQDYSNYMGGFAYWGQGTLVTVSS VL: QFVLTQPNSVSTNLGSTVKLSCKRSTGNIGNNYVNWYQQYEGRSPTTMIYRDDERPDGVPDRFSGSIDRSSNSALLTINNVQTEDEADYFCQSFSNGMFIFAGGTQLTVL
OUTPUT: 7.6 pIC50 (M)

API: the following record is the query input.
INPUT: Requested read-out: pIC50, S1P transport inhibition (LC-MS/MS of S1P). Entry: 18-0211B (antibody, IgG2b, V domains shown) VH: AVQLVGSGGGLVQPGRSMKLSCEASGFTFSNHYMAWVRQAPTRGLEWVATISTGGGNTYYRDSVKGRFTISRDNTRSTLSLQMDSLRSEDTATYYCTRQDYTNYMGGFAYWGQGTLVTVSS VL: QFVLTQPNSVSTNLGSTVKLSCTRSIGNIGNNYVNWYKQYEGRSPTTLIYRDDERPDGVPDRFSGSIDRSSNSALLTINSVQTEDGADYFCQSFSSGIFIFGGGTTLTVL
OUTPUT: 8.1 pIC50 (M)
